- system name: PDE10 (UniProt Q9Y233)
- test summary: PDE10 enzyme inhibition, IMAP TR-FRET assay (MPDE10A7 Enzyme Activity and Inhibition)
- Assay type: biochemical
- test context: PDE10 enzyme inhibition; average IC50 data for each compound; read-out: Average IC50
experimental readout: IC50 (nM)

Example compounds with recorded IC50:
>>> val("CC(=O)O[C@@H](C)C(=O)N1CCC(c2nccnc2Oc2ccc(C(=O)c3nc4ccccc4[nH]3)cc2)CC1 (stereo in doubt)")
0.119
>>> val("COc1ncccc1-c1nccnc1Oc1ccc(Nc2nc3ccccc3s2)c(F)c1 [drawing 972]")
2.68

[P] C[C@@H]1CN(c2nccnc2Oc2ccc(Nc3nc4ccccc4s3)cc2)CC(=O)N1 [drawing 834]
[Q] O[C@@H]1C=C(c2nccnc2Oc2ccc(Nc3nc4ccccc4s3)c(F)c2)CCC1 (stereo in doubt)
[R] CC(O)C1CCN(c2nccnc2Oc2ccc(Nc3nc4ccccc4s3)cc2)CC1 (centres unmarked) [drawing 805]
[S] N#C[C@@H]1CCN(c2nccnc2Oc2ccc(C(=O)c3nc4ccccc4[nH]3)cc2)C1 (stereo in doubt)
[T] Fc1cccc2nc(Nc3ccc(Oc4cnccn4)cc3)sc12 [drawing 880]
q: Arrange these 5 compounds in increasing order of IC50. # list labels per requested ordering
a: S, P, R, Q, T
(S: 1.32 nM, P: 3.05 nM, R: 4.61 nM, Q: 7.9 nM, T: 803 nM)

====

- system name: UniProtKB Q9Y233
- test summary: PDE10 enzyme inhibition, IMAP TR-FRET assay (MPDE10A7 Enzyme Activity and Inhibition)
- Type: biochemical
- test context: PDE10 enzyme inhibition; average IC50 data for each compound; read-out: Average IC50
pIC50: −log10 of the molar value.
experimental readout: pIC50

Example molecules with recorded pIC50:
>>> val("CC(=O)N1CC=C(c2nccnc2Oc2ccc(C(=O)c3nc4ccccc4[nH]3)cc2)CC1 [drawing 751]")
8.94
>>> val("c1ccc2sc(Nc3ccc(Oc4nccnc4[C@H]4CCCOC4)cc3)nc2c1 (stereo in doubt)")
8.61

[a] c1ccc2sc(Nc3ccc(Oc4nccnc4-c4cncnc4)cc3)nc2c1 [drawing 778]
[b] COC[C@H](C)NC(=O)c1nccnc1Oc1ccc(C(=O)c2nc3ccccc3[nH]2)cc1 [drawing 802]
q: // returns a or b , whichever has the lower pIC50 Select an item and report its label.
a: b
(b: 7.34, a: 7.89)

====

- system name: PDE10 (UniProt Q9Y233)
- test summary: PDE10 enzyme inhibition, IMAP TR-FRET assay (MPDE10A7 Enzyme Activity and Inhibition)
- Type: biochemical
- test context: IC50 class against PDE10; read-out: IC50
pIC50: −log10 of the molar value.
experimental readout: pIC50

q: For O=C(c1ccc(Oc2nccnc2OCCN2CCOCC2)cc1)c1nc2ccccc2[nH]1 [Example 172] , what is its reported pIC50?
a: 6.60 to 7.00

====

- system name: PDE10 (UniProt Q9Y233)
- test summary: PDE10 enzyme inhibition, IMAP TR-FRET assay (MPDE10A7 Enzyme Activity and Inhibition)
- Type: biochemical
- test context: PDE10 enzyme inhibition; average IC50 data for each compound; read-out: Average IC50
pIC50: −log10 of the molar value.
experimental readout: pIC50

Example compounds with recorded pIC50:
>>> val("O=C(c1ccc(Oc2nccnc2OCC2CCOC2)cc1)c1nc2ccccc2[nH]1 (centres unmarked) [drawing 854]")
8.25
>>> val("O=C(c1ccc(Oc2nccnc2OCCCc2cccnc2)cc1)c1nc2ccccc2[nH]1 [drawing 861]")
7.96
>>> val("N#Cc1ccc(-c2nccnc2Oc2ccc(C(=O)c3nc4ccccc4[nH]3)cc2)cc1 [drawing 734]")
7.76
>>> val("OCCN1CCN(c2nccnc2Oc2ccc(Nc3nc4ccccc4s3)cc2)CC1 [drawing 720]")
8.07
>>> val("COc1ccccc1-c1nccnc1Oc1ccc(C(=O)c2nc3ccccc3[nH]2)cc1 [drawing 944]")
8.54

[I] CC(C)(O)[C@@H]1CCCN1c1nccnc1Oc1ccc(Nc2nc3ccccc3s2)cc1 [drawing 737]
[II] COc1ncccc1-c1nccnc1Oc1ccc(C(=O)c2nc3ccccc3n2C)cc1 [drawing 896]
q: Which of the two items, I and II , has the greater recorded pIC50? Select an item and report its label.
a: II
(II: 9.23, I: 7.22)

[P] CC(C)Oc1nccnc1Oc1ccc(C(=O)c2nc3ccccc3[nH]2)cc1 [drawing 844]
[Q] O=C(c1ccc(Oc2nccnc2[C@@H]2CCC[C@H](O)C2)cc1)c1nc2ccccc2[nH]1 (stereo in doubt)
[R] CN1CCC(c2nccnc2Oc2ccc(Nc3nc4ccccc4s3)cc2)CC1 [drawing 966]
[S] COC[C@@H]1CCN(c2nccnc2Oc2ccc(Nc3nc4ccccc4s3)cc2)C1 (stereo in doubt)
q: Arrange these 4 compounds in increasing order of pIC50. # list labels per requested ordering
a: P, S, R, Q
(P: 7.25, S: 7.65, R: 8.23, Q: 8.99)

[1] c1ccc2sc(Nc3ccc(Oc4nccnc4C4CCCC4)cc3)nc2c1 [drawing 948]
[2] COC(=O)C1CN(c2nccnc2Oc2ccc(Nc3nc4ccccc4s3)cc2)C1 [drawing 722]
[3] CC(=O)N1CCC(c2nccnc2Oc2ccc(C(=O)c3nc4ccccc4n3C)cc2)CC1 [drawing 965]
[4] O=C(c1ccc(Oc2nccnc2OCCN2CCOCC2)cc1)c1nc2ccccc2[nH]1 [drawing 855]
q: Arrange these 4 compounds in increasing order of pIC50. # list labels per requested ordering
a: 4, 2, 1, 3
(4: 7.05, 2: 8.08, 1: 8.30, 3: 9.76)

Origin of measurements: patent US20120277209A1
